- Test system: HACAT
- measurement description: qHTS assay to identify novel small-molecules to repurpose for Merkel cell carcinoma treatment (AID 1296009); further: nearly all actives have a fitted effect of over 60% in size
- run parameters: MCC and control cell lines, CellTiter-Glo viability, 72 h; at 44.8 µM (top of the series) unless noted
Results filed as inconclusive are left out. The source made the active and inactive calls. The call rests on the fitted dose curve; in most records, active means well fitted inhibition curve with a large enough effect; inconclusive means small, poorly fitted or top-dose-only effect; inactive means flat fitted curve, though single readings scatter.
reported endpoint: outcome

Worked cases, outcome given:
INSERT INTO results (compound, measured) VALUES
  ('CCC(C)C(=O)O[C@@H]1[C@@H](O)[C@@H](O[C@H]2O[C@H](CO)[C@@H](O)[C@H](O)[C@H]2O)O[C@H](CO)[C@H]1O (stereo partly drawn)', 'inactive [at 17.4 µM]'),
  ('O=C(/C=C/c1ccc(O)cc1)OCC1=CC2OC(=O)C3=CO[C@@H](O[C@@H]4O[C@H](CO)[C@@H](O)[C@H](O)[C@H]4O)[C@H]1[C@@H]32 (stereo partly drawn)', 'inactive [at 17.4 µM]'),
  ('CC1=C2C(=O)C=C(CO)[C@@H]2[C@H]2OC(=O)[C@H](C)[C@@H]2[C@@H](O)C1', 'inactive'),
  ('CC(=O)NC(CCC(=O)O)C(=O)NCCc1ccc(O)cc1 (stereo not drawn)', 'inactive'),
  ('O=C(COc1ccc(Cl)cc1)NC1CCC(NC(=O)COc2ccc(Cl)cc2)CC1 (stereo not drawn)', 'inactive'),
  ('Cn1ccnc1CCOC(c1cc2nccc(C(=O)O)c2[nH]1)c1ccccc1Cl (stereo not drawn)', 'inactive'),
  ('CC1=C2C=C(CO)C(CO)CCC2(C)CCC1=O (stereo not drawn)', 'inactive');

Reading of outcome for CC1(C)OC(=O)C(OCC2CC2)=C1c1ccc(S(C)(=O)=O)cc1 with HACAT: inactive

----------
- Test system: CP315
- measurement description: qHTS profiling for inhibitors of Plasmodium falciparum proliferation (AID 504749); further: nearly all actives have a fitted effect of over 60% in size; further: potency means the concentration at half of the fitted maximal effect
- run parameters: P. falciparum in erythrocytes, SYBR Green DNA, 72 h; series mostly up to 28.7 µM
Inconclusive results are not listed. Activity calls are given as the source filed them. Calls come from the whole dose curve; as a rule, active = well fitted inhibition curve with a large enough effect; inconclusive = small, poorly fitted or top-dose-only effect; inactive = flat fitted curve, though single readings scatter.
reported endpoint: Potency

Solved cases below.
INSERT INTO results (compound, reported_endpoint, measured) VALUES
  ('CC[N+](C)(C)Cc1ccccc1Br', 'Potency', 'inactive'),
  ('CCOC(C)=O', 'Potency', 'inactive'),
  ('CCCCCCCCCCCC[n+]1ccc2ccccc2c1', 'Potency', '1070 nM (active)'),
  ('C#C[C@]1(O)CC[C@H]2[C@@H]3CCC4=CCCC[C@@H]4[C@H]3C(=C)C[C@@]21CC', 'Potency', 'inactive'),
  ('CC(C)=O', 'Potency', 'inactive'),
  ('CC(C)(C)C(=O)OCOC(=O)[C@@H]1N2C(=O)[C@@H](N=CN3CCCCCC3)[C@H]2SC1(C)C', 'Potency', 'inactive'),
  ('Cc1cn([C@H]2C[C@H](O)[C@@H](CO)O2)c(=O)[nH]c1=O', 'Potency', 'inactive'),
  ('CCCCCCCC/C=C\CCCCCCCC(=O)O', 'Potency', 'inactive');

Recorded result, Nc1c(Br)cc(Br)cc1CNC1CCC(O)CC1 (stereo not given) , Potency: inactive

// O=S(=O)(O)O : Potency value = inactive

Noted for CC(NNC(=O)c1ccccc1)c1ccccc1 (stereo not given) : its Potency reads inactive

Quick note, Potency for C[C@@H]1CCC2[C@@H](C)[C@@H](O)O[C@@H]3O[C@@]4(C)CC[C@@H]1[C@@]23OO4 (stereo not given in full) landed at 6.7 nM (active)
